Data origin, for the record: patent US10941182

Target: T1, human APJ receptor (human, UniProt P35414 1-380)
T1 sequence (looked up): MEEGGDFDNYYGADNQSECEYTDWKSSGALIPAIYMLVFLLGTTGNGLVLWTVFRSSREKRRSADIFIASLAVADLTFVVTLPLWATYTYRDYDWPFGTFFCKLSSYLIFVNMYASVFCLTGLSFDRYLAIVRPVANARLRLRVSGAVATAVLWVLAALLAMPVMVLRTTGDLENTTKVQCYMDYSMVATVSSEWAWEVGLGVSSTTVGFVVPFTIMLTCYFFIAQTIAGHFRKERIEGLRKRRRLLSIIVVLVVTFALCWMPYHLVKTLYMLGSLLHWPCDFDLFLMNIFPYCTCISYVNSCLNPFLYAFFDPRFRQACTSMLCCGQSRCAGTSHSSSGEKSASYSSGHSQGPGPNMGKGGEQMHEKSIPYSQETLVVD
Test: cell-based or functional assay
Starred links: 1 amine or outer side, 2 acyl side, 3 side chain; linkers in the order of their positions; H or OH if unused. Non-standard residues stand in square brackets, D forms with d. No end group written: not given here. Atz = 3-(1,2,3-triazol-4-yl)alanine, O=C([C@H](Cc1c[nH]nn1)N[*:1])[*:2]; dBip = N[C@H](Cc1ccc(-c2ccccc2)cc1)C(=O)O; Oic = O=C(O)[C@@H]1C[C@@H]2CCCC[C@@H]2N1; Phe(4-Cl) = N[C@@H](Cc1ccc(Cl)cc1)C(=O)O; Phe(4-I) = N[C@@H](Cc1ccc(I)cc1)C(=O)O; hArg = N=C(N)NCCCC[C@H](N)C(=O)O; Cha = N[C@@H](CC1CCCCC1)C(=O)O; NMeL = CN[C@@H](CC(C)C)C(=O)O; β3hP = O=C(O)C[C@@H]1CCCN1; code O = not defined here; Nle = CCCC[C@H](N)C(=O)O; Orn = NCCC[C@H](N)C(=O)O; βAla = NCCC(=O)O
# strict inequality: EC50 Human APJ Receptor < 5 nM yields condition met, everything else yields condition not met

binder	class_assignment
Ac-[Atz](20K‑mPEG)LRP[hArg][Cha]SHKG[Oic][Nle]P[Phe(4-Cl)]-OH [apelin polypeptide SEQ ID NO: 106]	condition met
QRPRLSHKGXFPX ({Acetyl-NH}Q[hArg]Pr[NMeLeu]SHKG[Oic][pI-Phe]P[D-Bip]{COOH}) [apelin polypeptide SEQ ID NO: 53]	condition not met
[Orn]F[hArg][hArg]Q[hArg]P[hArg][Cha]SHKG[β3hP][Nle]P[Phe(4-Cl)] [apelin polypeptide SEQ ID NO: 706]	condition met

Ask: Please state whether EC50 Human APJ Receptor is below 5 nM for Ac-RQRP[hArg][NMeL]SHKG[Oic][Phe(4-I)]P[dBip]-OH [apelin polypeptide SEQ ID NO: 51]
Reply: condition met

Ask: Please state whether EC50 Human APJ Receptor is below 5 nM for [code O]F[hArg][hArg]Q[hArg]P[hArg][Cha]SHKG[Oic][βAla]P[Phe(4-Cl)] (reading uncertain; also: printed as OF[hArg][hArg]Q[hArg]P[hArg][Cha]SHKG[Oic][bAla]P[4-Cl-F]) [apelin polypeptide SEQ ID NO: 708]
Reply: condition not met
